B1: USP39 (parent)
chain: FVEKNPTIVNFPITNVDLREYLSE

Variants of: B1
Assay: protein stability index of a GFP-peptide fusion (GPS, HEK-293T) (PSI 1-6); higher = more stable;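 note: lentivirally expressed fusions sorted by FACS into six bins by GFP to DsRed ratio, PSI derived from sequencing read proportions per bin multiplied by bin number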
Details: c terminus: a fixed tail appended
readout: protein stability index

Exercise: Respond only with protein stability index recorded for `I8C`
Solution: 2.02

Exercise: For the variant `N10V` , give its reported protein stability index.
Solution: 2.29

Exercise: Give protein stability index for the following variant: `N5R`
Solution: 1.94

Exercise: In one line, give reported protein stability index of the entry `N15T` .
Solution: 1.43

Exercise: Specify reported protein stability index for the variant shown: `F11A`
Solution: 1.85

Exercise: Dear colleague, please send me the reported protein stability index for `E20R` when you can.
Solution: 1.41

Exercise: Look up protein stability index of `Y21N` and report it.
Solution: 1.9

Exercise: Input `E20V` , output reported protein stability index.
Solution: 2.28

Exercise: Give the measured protein stability index for `E20P`
Solution: 2.02

Exercise: For the variant `T7Q` , give its measured protein stability index value.
Solution: 1.81

---
Exercise: Write down protein stability index measured for item `V16F`
Solution: 1.8

Exercise: For the variant `Y21V` , give its reported protein stability index.
Solution: 1.52

Exercise: Assign protein stability index to the following record: `F11N`
Solution: 2.22

Exercise: Query protein stability index for `D17R`
Solution: 2.25

Exercise: State, in one line, measured protein stability index of `S23L`
Solution: 1.11

Sourced from the supplement of paper PMC10567573
